Below are compounds with their pEC50 as measured on Peroxisome proliferator-activated receptor alpha (Homo sapiens).
Answers are plain numbers, as −log10 of the molar value.

Solved cases below.
smi: COCc1nc(-c2ccc(C(=O)NCc3ccc(OC(C)(C)C(=O)O)cc3)cc2)no1
pEC50: 5.52
//
smi: CC(C)(Oc1ccc(CNC(=O)Cc2ccc(-c3ccc(Cl)cc3)cc2)cc1)C(=O)O
pEC50: 5.55
//
smi: COCc1nc(-c2ccc(C(=O)NCc3ccc(NS(=O)(=O)C(F)(F)F)cc3)cc2)no1
pEC50: 6.44

Would you mind giving pEC50 for every compound in the list below?
1. Cc1nc(-c2ccc(C(F)(F)F)cc2)sc1C(=O)NCc1ccc(NS(=O)(=O)CC(F)(F)F)cc1
2. O=C(Cc1ccc(-c2ccc(Cl)cc2)cc1)NCc1ccc(NS(=O)(=O)C(F)(F)F)cc1

**A:**
[8.52, 7.10]

* * *

Each entry below carries its measured EC50, system: Peroxisome proliferator-activated receptor alpha (Homo sapiens, UniProt Q07869).
Sequence (Q07869 whole entry): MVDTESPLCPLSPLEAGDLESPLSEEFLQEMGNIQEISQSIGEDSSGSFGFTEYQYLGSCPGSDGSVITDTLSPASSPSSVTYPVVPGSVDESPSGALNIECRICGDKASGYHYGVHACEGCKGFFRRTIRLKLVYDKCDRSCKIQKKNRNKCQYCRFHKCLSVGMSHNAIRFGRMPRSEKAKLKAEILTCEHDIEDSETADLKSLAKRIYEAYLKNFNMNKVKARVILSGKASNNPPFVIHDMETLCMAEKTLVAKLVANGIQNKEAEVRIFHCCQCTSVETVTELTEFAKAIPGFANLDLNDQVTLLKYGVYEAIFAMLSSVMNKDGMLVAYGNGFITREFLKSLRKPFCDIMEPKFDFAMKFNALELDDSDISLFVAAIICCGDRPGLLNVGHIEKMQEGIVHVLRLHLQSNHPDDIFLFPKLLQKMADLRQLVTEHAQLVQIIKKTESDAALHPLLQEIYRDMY

smi: Cc1nc(-c2ccc(C(F)(F)F)cc2)sc1C(=O)NCc1ccc(OCc2nn[nH]n2)cc1
reportedValue: > 10 µM
--
smi: Cc1nc(-c2ccc(C(F)(F)F)cc2)sc1C(=O)NCc1ccc(OC(C)(C)C(=O)NS(=O)(=O)C(F)(F)F)cc1
reportedValue: > 10 µM

Consider now this further compound.
**Q:** Would you mind telling me what EC50 value was observed for `Cc1nc(-c2ccc(C(F)(F)F)cc2)sc1C(=O)NCc1ccc(-c2c(O)c(=O)c2=O)cc1` ?
**A:** > 10 µM
